Let's look at some compounds and their measured melting point.

Example cases with answers are listed next.
- SMILES_STR: "CCCCCCCCCCSC1=CC(=O)c2ccccc2C1=O"
  melting point: "101 to 102 °C"
- SMILES_STR: "CCCCCCCCSC1=CC(=O)c2ccccc2C1=O"
  melting point: "114 to 115 °C"
- SMILES_STR: "CCCNC1=CC(=O)c2c(OC)ccc(OC)c2C1=O"
  melting point: "175 to 176 °C"
- SMILES_STR: "CCCCCCCCCSC1=CC(=O)c2ccccc2C1=O"
  melting point: "105 to 106 °C"
- SMILES_STR: "CCCCCCNC1=CC(=O)c2c(OC)ccc(OC)c2C1=O"
  melting point: "83 to 84 °C"

Check the records and state melting point for CCCCCSC1=CC(=O)c2ccccc2C1=O
111 to 112 °C
